# Test system: Mus musculus
# ASSAY_COMMENT: Toxicity in Swiss albino mouse assessed as induction of loss of righting reflex at 100 mg/kg, sc relative to control
# Type: organism-based
# Parameters: dose 100 mg/kg, route subcutaneous
# CONDITION_DETAILS: in vivo
OUTCOME_MEASURE: Activity (%)

- MOLECULE: "Cc1cccc(C)c1NC(=O)CN.Cl"
  OUTCOME_MEASURE: "Activity"
  UNIT_LABEL: "%"
  READOUT_NUMBER: 0
- MOLECULE: "Cc1cccc(C)c1NC(=O)[C@@H](C)N.Cl"
  OUTCOME_MEASURE: "Activity"
  UNIT_LABEL: "%"
  READOUT_NUMBER: 0
- MOLECULE: "CCc1cccc(CC)c1NC(=O)C(N)CC.Cl (stereo unspecified)"
  OUTCOME_MEASURE: "Activity"
  UNIT_LABEL: "%"
  READOUT_NUMBER: 0
- MOLECULE: "CCc1cccc(CC)c1NC(=O)C(C)N.Cl (stereo unspecified)"
  OUTCOME_MEASURE: "Activity"
  UNIT_LABEL: "%"
  READOUT_NUMBER: 0
- MOLECULE: "Cc1cccc(C)c1NC(=O)C(C)N.Cl (racemic) [TOCAINIDE HYDROCHLORIDE]"
  OUTCOME_MEASURE: "Activity"
  UNIT_LABEL: "%"
  READOUT_NUMBER: 0
- MOLECULE: "CCc1cccc(CC)c1NC(=O)CN.Cl"
  OUTCOME_MEASURE: "Activity"
  UNIT_LABEL: "%"
  READOUT_NUMBER: 0
- MOLECULE: "CCc1cccc(C)c1NC(=O)CN.Cl"
  OUTCOME_MEASURE: "Activity"
  UNIT_LABEL: "%"
  READOUT_NUMBER: 0
- MOLECULE: "Cc1cc(C)c(NC(=O)CN)c(C)c1.Cl"
  OUTCOME_MEASURE: "Activity"
  UNIT_LABEL: "%"
  READOUT_NUMBER: 0
- MOLECULE: "CCN(CC)CC(=O)Nc1c(C)cccc1C.Cl"
  OUTCOME_MEASURE: "Activity"
  UNIT_LABEL: "%"
  READOUT_NUMBER: 100
- MOLECULE: "Cc1cccc(C)c1NC(=O)C(N)c1ccccc1.Cl (stereo unspecified)"
  OUTCOME_MEASURE: "Activity"
  UNIT_LABEL: "%"
  READOUT_NUMBER: 100
- MOLECULE: "Cc1cccc(C)c1NC(=O)[C@H](C)N.Cl"
  OUTCOME_MEASURE: "Activity"
  UNIT_LABEL: "%"
  READOUT_NUMBER: 0

* * *

# Tested on: Mus musculus
# ASSAY_COMMENT: Antiarrhythmic activity in Swiss albino mouse assessed as protection against chloroform-induced fibrillation at 100 mg/kg, sc relative to control
# Assay type: functional, Heart
# CONDITION_DETAILS: route subcutaneous
# Activity listing for each entry below
OUTCOME_MEASURE: Activity (%)

- MOLECULE: "Cc1cccc(C)c1NC(=O)C(C)N.Cl (racemic) [TOCAINIDE HYDROCHLORIDE]"
  READOUT_NUMBER: 20
- MOLECULE: "Cc1cccc(C)c1NC(=O)[C@@H](C)N.Cl"
  READOUT_NUMBER: 10
- MOLECULE: "Cc1cccc(C)c1NC(=O)[C@H](C)N.Cl"
  READOUT_NUMBER: 0
- MOLECULE: "Cc1cccc(C)c1NC(=O)C(N)c1ccccc1.Cl (stereo unspecified)"
  READOUT_NUMBER: 80
- MOLECULE: "CCc1cccc(CC)c1NC(=O)CN.Cl"
  READOUT_NUMBER: 10
- MOLECULE: "CCc1cccc(C)c1NC(=O)CN.Cl"
  READOUT_NUMBER: 20
- MOLECULE: "CCc1cccc(CC)c1NC(=O)C(C)N.Cl (stereo unspecified)"
  READOUT_NUMBER: 20
- MOLECULE: "Cc1cc(C)c(NC(=O)CN)c(C)c1.Cl"
  READOUT_NUMBER: 10
- MOLECULE: "Cc1cccc(C)c1NC(=O)CN.Cl"
  READOUT_NUMBER: 10
- MOLECULE: "CCN(CC)CC(=O)Nc1c(C)cccc1C.Cl"
  READOUT_NUMBER: 100
- MOLECULE: "CCc1cccc(CC)c1NC(=O)C(N)CC.Cl (stereo unspecified)"
  READOUT_NUMBER: 100

* * *

# ASSAY_COMMENT: Oral bioavailability in dog
# Format: ADME, organism-based, Canis lupus familiaris
# CONDITION_DETAILS: in vivo

- COMPOUND: "Cc1cccc(C)c1NC(=O)C(C)N.Cl (racemic) [TOCAINIDE HYDROCHLORIDE]"
  UNIT_LABEL: "%"
  bioavailability: 80

* * *

# Tested on: Canis familiaris
# ASSAY_COMMENT: Antiarrhythmic activity in coronary ligated dog assessed as reduction of ventricular ectopic beats to <5% of total ventricular beats at 0.5 mg/kg, iv measured for 5 mins relative to control
# Assay type: functional, Canis lupus familiaris, Heart
# Design: scale not given: the % may be the effect or the level left
OUTCOME_MEASURE: Activity (%)

- COMPOUND: "CCN(CC)CC(=O)Nc1c(C)cccc1C.Cl"
  READOUT_NUMBER: 4
- COMPOUND: "Cc1cccc(C)c1NC(=O)[C@H](C)N.Cl"
  READOUT_NUMBER: 0
- COMPOUND: "Cc1cccc(C)c1NC(=O)C(C)N.Cl (racemic) [TOCAINIDE HYDROCHLORIDE]"
  READOUT_NUMBER: 2
- COMPOUND: "Cc1cccc(C)c1NC(=O)CN.Cl"
  READOUT_NUMBER: 0
- COMPOUND: "Cc1cccc(C)c1NC(=O)[C@@H](C)N.Cl"
  READOUT_NUMBER: 0
- COMPOUND: "CCc1cccc(CC)c1NC(=O)C(C)N.Cl (stereo unspecified)"
  READOUT_NUMBER: 2

* * *

Activity listing for selected molecules.
# Tested on: Canis familiaris
# ASSAY_COMMENT: Antiarrhythmic activity in coronary ligated dog assessed as reduction of ventricular rates at 0.5 mg/kg, iv measured for 5 mins relative to control
# Assay type: functional, Canis lupus familiaris, Heart
OUTCOME_MEASURE: Activity (bpm)

- MOLECULE: "CCc1cccc(CC)c1NC(=O)C(C)N.Cl (centres undefined)"
  TARGET_DESC: "Canis familiaris"
  READOUT_NUMBER: 124
- MOLECULE: "Cc1cccc(C)c1NC(=O)[C@@H](C)N.Cl"
  TARGET_DESC: "Canis familiaris"
  READOUT_NUMBER: 123
- MOLECULE: "Cc1cccc(C)c1NC(=O)CN.Cl"
  TARGET_DESC: "Canis familiaris"
  READOUT_NUMBER: 123
- MOLECULE: "CCN(CC)CC(=O)Nc1c(C)cccc1C.Cl"
  TARGET_DESC: "Canis familiaris"
  READOUT_NUMBER: 133

* * *

# Tested on: Mus musculus
# ASSAY_COMMENT: Toxicity in Swiss albino mouse assessed as induction of convulsions at 100 mg/kg, sc relative to control
# Assay type: organism-based
# Design: dose 100 mg/kg, route subcutaneous
# CONDITION_DETAILS: in vivo
OUTCOME_MEASURE: Activity (%)

- COMPOUND: "CCc1cccc(C)c1NC(=O)CN.Cl"
  READOUT_NUMBER: 0
- COMPOUND: "Cc1cccc(C)c1NC(=O)C(C)N.Cl (racemic) [TOCAINIDE HYDROCHLORIDE]"
  READOUT_NUMBER: 0
- COMPOUND: "CCc1cccc(CC)c1NC(=O)CN.Cl"
  READOUT_NUMBER: 0
- COMPOUND: "Cc1cccc(C)c1NC(=O)CN.Cl"
  READOUT_NUMBER: 0
- COMPOUND: "CCN(CC)CC(=O)Nc1c(C)cccc1C.Cl"
  READOUT_NUMBER: 100
- COMPOUND: "CCc1cccc(CC)c1NC(=O)C(C)N.Cl (centres undefined)"
  READOUT_NUMBER: 10
- COMPOUND: "Cc1cccc(C)c1NC(=O)C(N)c1ccccc1.Cl (centres undefined)"
  READOUT_NUMBER: 100
- COMPOUND: "CCc1cccc(CC)c1NC(=O)C(N)CC.Cl (centres undefined)"
  READOUT_NUMBER: 100
- COMPOUND: "Cc1cccc(C)c1NC(=O)[C@@H](C)N.Cl"
  READOUT_NUMBER: 0
